molecular target: Cytochrome P450 2D6 (Homo sapiens, UniProt P10635)
Sequence (P10635 whole entry): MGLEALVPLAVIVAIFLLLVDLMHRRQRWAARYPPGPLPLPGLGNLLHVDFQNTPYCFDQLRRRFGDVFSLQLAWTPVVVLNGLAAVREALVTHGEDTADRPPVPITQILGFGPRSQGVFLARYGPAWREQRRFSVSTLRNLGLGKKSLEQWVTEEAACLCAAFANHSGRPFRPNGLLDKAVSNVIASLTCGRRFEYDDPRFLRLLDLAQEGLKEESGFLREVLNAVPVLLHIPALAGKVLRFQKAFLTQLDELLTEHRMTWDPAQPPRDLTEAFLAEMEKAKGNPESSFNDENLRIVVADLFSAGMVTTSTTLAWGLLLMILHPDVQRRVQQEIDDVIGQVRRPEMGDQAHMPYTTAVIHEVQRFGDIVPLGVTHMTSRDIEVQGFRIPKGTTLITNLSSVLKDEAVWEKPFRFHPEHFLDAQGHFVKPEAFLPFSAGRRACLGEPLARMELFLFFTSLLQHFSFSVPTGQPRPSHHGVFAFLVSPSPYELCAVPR
fulfilled if IC50 is below 7 µM. not fulfilled if not; exact matches included in not fulfilled.

Some solved entries appear below for comparison.
FC(F)(F)Oc1cccc(Nc2nnc3n2CCOc2ccc(-c4ccncc4)cc2-3)c1 : fulfilled
FC(F)(F)c1cccc(Nc2nnc3n2CCOc2ccc(-c4ccncc4)cc2-3)c1 : fulfilled
Cc1cc(-c2ccc3c(c2)-c2nnc(Nc4cccc(OC(F)(F)F)c4)n2CCO3)ccn1 : fulfilled
Cc1cc(-c2ccc3c(c2)-c2nnc(Cc4cccc(Cl)c4)n2CCO3)ccn1 : fulfilled
O=C(Nc1ccc(Cl)c(Cl)c1)N1CCOc2ccc(-c3ccncc3)cc2C1 : not fulfilled

Inquiry: Dear colleague, could you confirm whether IC50 of `Cc1cc(-c2ccc3c(c2)-c2nnc(Oc4ccccc4OC(F)(F)F)n2CCO3)ccn1` falls below 7 µM? Thanks.
Reply text: not fulfilled

Inquiry: Say whether its IC50 is strictly beneath 7 µM. Entry: `Cc1cc(-c2ccc3c(c2)-c2nnc(Oc4cccc(Cl)c4F)n2CCO3)ccn1`
Reply text: not fulfilled

---

Exercise: state measured pIC50 for each of the compounds provided.
biological target: Voltage-gated inwardly rectifying potassium channel KCNH2 (Homo sapiens); assay: Inhibition of human ERG expressed in HEK293 cells assessed as reduction in S35-MK-0499 binding; assay type: cell-based
Sequence (Q12809 whole entry): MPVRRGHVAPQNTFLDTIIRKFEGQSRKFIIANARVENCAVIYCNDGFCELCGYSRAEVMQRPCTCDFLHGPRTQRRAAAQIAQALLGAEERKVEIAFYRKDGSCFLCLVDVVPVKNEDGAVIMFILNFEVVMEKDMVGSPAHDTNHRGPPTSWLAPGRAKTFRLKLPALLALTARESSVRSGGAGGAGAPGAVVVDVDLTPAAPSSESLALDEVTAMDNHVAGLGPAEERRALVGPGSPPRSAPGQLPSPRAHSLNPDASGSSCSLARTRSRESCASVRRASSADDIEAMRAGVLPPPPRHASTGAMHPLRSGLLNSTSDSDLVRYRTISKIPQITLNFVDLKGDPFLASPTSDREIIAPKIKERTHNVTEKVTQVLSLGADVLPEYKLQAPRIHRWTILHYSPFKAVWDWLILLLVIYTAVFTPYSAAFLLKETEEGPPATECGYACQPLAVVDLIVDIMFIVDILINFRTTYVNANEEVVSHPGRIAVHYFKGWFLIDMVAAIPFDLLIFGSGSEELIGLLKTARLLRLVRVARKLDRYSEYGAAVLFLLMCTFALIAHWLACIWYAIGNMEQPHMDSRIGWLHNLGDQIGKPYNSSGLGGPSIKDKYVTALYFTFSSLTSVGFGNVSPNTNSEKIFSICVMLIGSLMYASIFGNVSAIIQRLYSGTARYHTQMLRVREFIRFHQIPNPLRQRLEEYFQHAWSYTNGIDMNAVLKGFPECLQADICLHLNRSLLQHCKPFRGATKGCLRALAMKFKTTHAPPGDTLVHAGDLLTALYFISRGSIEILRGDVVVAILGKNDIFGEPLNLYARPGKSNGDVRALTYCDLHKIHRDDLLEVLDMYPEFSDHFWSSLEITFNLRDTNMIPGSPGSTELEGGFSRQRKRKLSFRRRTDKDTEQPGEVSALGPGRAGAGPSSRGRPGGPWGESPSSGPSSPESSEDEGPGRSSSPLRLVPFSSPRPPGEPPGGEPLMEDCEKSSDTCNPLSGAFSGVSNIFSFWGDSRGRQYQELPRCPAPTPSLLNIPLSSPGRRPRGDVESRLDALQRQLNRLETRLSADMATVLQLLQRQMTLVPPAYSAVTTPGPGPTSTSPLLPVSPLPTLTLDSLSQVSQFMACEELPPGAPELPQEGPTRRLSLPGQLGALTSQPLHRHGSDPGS
One number for each entry, as −log10 of the molar value.

Examples from the recorded data:
FC(F)(F)c1cccc(Nc2nnc3n2CCOc2ccc(-c4ccncc4)cc2-3)c1 : 6.25
Cc1cc(-c2ccc3c(c2)-c2nnc(Nc4cccc(C(F)(F)F)c4)n2CCO3)ccn1 : 6.41
Cc1cc(-c2ccc3c(c2)-c2nnc(Cc4cccc(Cl)c4)n2CCO3)ccn1 : 5.41
Cc1cc(-c2ccc3c(c2)-c2nnc(Oc4cccc(Cl)c4)n2CCO3)ccn1 : 6.03

Look up pIC50 for the entries below, preserving their order.
1. Cc1cc(-c2ccc3c(c2)-c2nnc(Oc4cccc(OC(F)(F)F)c4)n2CCO3)ccn1
2. Cc1cc(-c2ccc3c(c2)-c2nnc(Oc4ccccc4OC(F)(F)F)n2CCO3)ccn1
3. FC(F)(F)Oc1cccc(Nc2nnc3n2CCOc2ccc(-c4ccncc4)cc2-3)c1
4. Cc1cc(-c2ccc3c(c2)-c2nnc(Oc4ccccc4Cl)n2CCO3)ccn1
5. Cc1cc(-c2ccc3c(c2)-c2nnc(Oc4cccc(Cl)c4F)n2CCO3)ccn1
6. CCc1cc(-c2ccc3c(c2)-c2nnc(Nc4cccc(C(F)(F)F)c4)n2CCO3)ccn1
7. Cc1cc(-c2ccc3c(c2)-c2nnc(Nc4cccc(OC(F)(F)F)c4)n2CCO3)ccn1

Reply text:
1. 6.16
2. 5.55
3. 6.22
4. 5.45
5. 5.62
6. 6.48
7. 6.63

---

assay: Protein binding in rat plasma assessed as unbound fraction; type: ADME, cell-free
Provide the reported fraction unbound of each item.
One number for each entry.

Kindly give each listed record's fraction unbound.
1. O=C(Nc1ccc(Cl)c(Cl)c1)N1CCOc2ccc(-c3ccncc3)cc2C1
2. CCc1cc(-c2ccc3c(c2)-c2nnc(Nc4cccc(C(F)(F)F)c4)n2CCO3)ccn1
3. O=C(Nc1cccc(Cl)c1)N1CCOc2ccc(-c3ccncc3)cc2C1

Reply text:
1: 0.0015; 2: 0.0034; 3: 0.0086

---

Target: Probable G-protein coupled receptor 142 (Homo sapiens, UniProt Q7Z601)
Sequence (Q7Z601 whole entry): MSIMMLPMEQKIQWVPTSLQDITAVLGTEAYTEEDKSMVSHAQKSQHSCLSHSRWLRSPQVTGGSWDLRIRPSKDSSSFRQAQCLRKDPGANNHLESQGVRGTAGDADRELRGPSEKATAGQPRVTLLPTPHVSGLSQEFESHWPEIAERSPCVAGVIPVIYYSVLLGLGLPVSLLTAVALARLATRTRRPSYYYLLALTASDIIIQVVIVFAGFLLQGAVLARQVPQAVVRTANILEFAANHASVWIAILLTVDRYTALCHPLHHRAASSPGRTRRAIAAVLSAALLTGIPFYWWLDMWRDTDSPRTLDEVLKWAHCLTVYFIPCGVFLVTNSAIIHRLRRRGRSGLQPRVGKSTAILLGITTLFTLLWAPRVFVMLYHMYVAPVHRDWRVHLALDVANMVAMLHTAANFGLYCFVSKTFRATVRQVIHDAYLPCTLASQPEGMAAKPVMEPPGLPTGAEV
Assay: Agonist activity at human GPR142 expressed in CHO cells measured for 3 mins by Fluo-4M dye based FLIPR assay
Conditions: read-out: IC50 (the source's name)
Would you mind telling me the reported EC50 of each entry?
Answers are plain numbers, in µM.

COc1cccc(NC(=O)N2CCOc3ccc(-c4ccncn4)cc3C2)c1 : 1.6

Hey, can you go through the list below and give me EC50 for every item?
1. O=C(Nc1ccc(Cl)c(Cl)c1)N1CCCc2ccc(-c3ccncc3)cc2C1
2. N#Cc1cccc(NC(=O)N2CCOc3ccc(-c4ccncc4)cc3C2)c1
3. O=C(Nc1ccc(F)cc1)N1CCOc2ccc(-c3ccncc3)cc2C1
4. Cc1cc(-c2ccc3c(c2)-c2nnc(Oc4cccc(Cl)c4F)n2CCO3)ccn1
5. CCc1cc(-c2ccc3c(c2)-c2nnc(Nc4cccc(C(F)(F)F)c4)n2CCO3)ccn1
6. COc1cccc(NC(=O)N2CCOc3ccc(-c4ccnc5ccccc45)cc3C2)c1
7. O=C(Nc1cccc(Oc2ccccc2)c1)N1CCOc2ccc(-c3ccncc3)cc2C1

Reply text:
[0.839, 0.08, 1.22, 0.056, 0.074, 0.962, 1.72]
